Values were extracted from PubChem BioAssay AID1457.

- measurement notes: qHTS Assay for Identifying the Cell-Membrane Permeable IMPase Inhibitors: Potentiation with Lithium;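 note: IP1 builds up when IMPase is blocked and the TR-FRET signal falls; nearly all actives have a fitted effect of over 50% in size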
- condition description: CHO-M1 cells, IP1 TR-FRET (IP-One), carbachol + lithium; series mostly up to 59.4 µM
Hit rate of the full screen: of about 210,000 compounds, about 730 (0.35%) were called active. Another 1% or so got no clear call; they are omitted. Calls come from the whole dose curve; as a rule, active = well fitted inhibition curve with a large enough effect; inconclusive = small, poorly fitted or top-dose-only effect; inactive = no such curve, though single readings can be large or run the other way. The full list was thinned out, with actives kept by preference.
Possible outcomes: t for active, f for inactive

{"compound": "CCc1ccc(NC2Nc3cc(C)nn3S2)cc1 (stereo not given)", "category": "f"}
{"compound": "CCCCCCCC/C=C\\CCCCCCCC(=O)NCC(=O)O", "category": "f"}
{"compound": "COC(=O)CCCC1=CC2=CC(=O)C(C)(OC(=O)c3cccs3)C(=O)C2=CN1c1ccc(CO)cc1 (stereo not given)", "category": "f"}
{"compound": "C[C@H]1Cc2c(-c3ccccc3)nc3c(c2CO1)CN(S(=O)(=O)c1ccc(Cl)c2nonc12)CC3", "category": "f"}
{"compound": "CCOC(=O)c1ccc(NC2Nc3cc(C)nn3S2)cc1 (stereo not given)", "category": "t"}

====

- measurement notes: qHTS Assay for Identifying the Cell-Membrane Permeable IMPase Inhibitors: Potentiation with Lithium;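 note: IP1 builds up when IMPase is blocked and the TR-FRET signal falls; nearly all actives have a fitted effect of over 50% in size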
- condition description: CHO-M1 cells, IP1 TR-FRET (IP-One), carbachol + lithium; series mostly up to 59.4 µM
The whole screen tested about 210,000 compounds, of which about 730 (0.35%) were called active. Roughly 1% stayed inconclusive and do not appear here. Calls follow the shape of the dose curve; as a rule, active = well fitted inhibition curve with a large enough effect; inconclusive = small, poorly fitted or top-dose-only effect; inactive = no such curve, though single readings can be large or run the other way. What follows is part of a selection rich in actives, with near analogues and random picks from the rest.
Possible outcomes: active, inactive

{"compound": "CC(=O)/C(C)=N/O", "category": "inactive"}
{"compound": "COC(=O)CCCC1=CC2=CC(=O)C(C)(OC(=O)c3cccs3)C(=O)C2=CN1CC1CC1 (stereo not given)", "category": "inactive"}
{"compound": "CCCCC/C=C\\CC1OC1CCCCCCCC(=O)O (stereo not given)", "category": "inactive"}
{"compound": "COc1ccc(-c2nc3c(c4c2C[C@H](c2ccccc2)OC4)CN(S(=O)(=O)c2c(C)noc2C)CC3)c(C)c1", "category": "inactive"}
{"compound": "CC(=O)[C@H](C(c1ccccc1)N1CCOCC1)N1CCOCC1 (stereo not given in full)", "category": "inactive"}
{"compound": "Nc1nc2c(ncn2[C@@H]2O[C@H](COP(=O)(O)OP(=O)(O)OP(=O)(O)O)[C@@H](O)C2O)c(=O)[nH]1 (stereo not given in full)", "category": "inactive"}
{"compound": "O=C(CSc1nc2c(cnn2-c2ccc(F)cc2)c(=O)[nH]1)N1CCCCCC1", "category": "inactive"}
{"compound": "CC(=O)c1sc2nc(SCC(=O)N3CCCCC3)[nH]c(=O)c2c1C", "category": "active"}
{"compound": "C=C1O[C@@](CO)(n2cnc3c(N)ncnc32)[C@H](O)[C@@H]1O", "category": "inactive"}
{"compound": "COc1ccc(-c2c(C)cc3oc(=O)cc(-c4ccccc4)c3c2C)cc1OC", "category": "inactive"}

====

- measurement notes: qHTS Assay for Identifying the Cell-Membrane Permeable IMPase Inhibitors: Potentiation with Lithium;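 note: IP1 builds up when IMPase is blocked and the TR-FRET signal falls; nearly all actives have a fitted effect of over 50% in size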
- condition description: CHO-M1 cells, IP1 TR-FRET (IP-One), carbachol + lithium; series mostly up to 59.4 µM
- Description: NIH Chemical Genomics Center [NCGC] NIH Molecular Libraries Probe Production centers Network [MLPCN] Assay Submitter (PI): Wei Zheng Lithium has been widely used for the treatment of bipolar disorder. […] To identify new cell-permeable IMPase inhibitors, we developed a cell-based IMPase assay in which the cytosolic IP1 is measured by a time-resolved fluorescence resonance energy transfer (TR-FRET) assay. […] (7) Detect the assay plate (Ex = 320, Em1 =665 and Em2 620) in a ViewLux plate reader.
The whole screen tested about 210,000 compounds, of which about 730 (0.35%) were called active. Not shown: some 1% with an inconclusive outcome. Calls come from the whole dose curve; as a rule, active = well fitted inhibition curve with a large enough effect; inconclusive = small, poorly fitted or top-dose-only effect; inactive = no such curve, though single readings can be large or run the other way. Many of the other results were omitted from the sample, so actives are more common in it than they were.
Possible outcomes: active, inactive

{"molecule": "C/C=C(\\C)C(=O)O[C@H]1CC(C)=C2C(=O)C=C(C)C2[C@@H]2OC(=O)[C@@](C)(OC(=O)C=C(C)C)C21 (some centres undefined)", "category": "inactive"}
{"molecule": "O=C(Nc1ccc(Sc2ccc(Br)cc2)cc1)c1ccco1", "category": "inactive"}
{"molecule": "CCOC(=O)c1c(-c2ccc(C)cc2C)csc1NC(=O)CSc1nnnn1C", "category": "inactive"}
{"molecule": "O=c1c(O)c(Br)ccc2c(Br)c(O)c(O)c(O)c12", "category": "inactive"}
{"molecule": "CC(=O)CC(c1ccccc1)C1C(=O)Oc2ccccc2C1=O (centres undefined)", "category": "inactive"}
{"molecule": "CSc1ncnc2sc(C)c(C)c12", "category": "inactive"}
{"molecule": "COc1ccc(-c2nc3c(c4c2C[C@H](c2ccccc2)OC4)CN(C(=O)c2cccnc2)CC3)c(C)c1", "category": "inactive"}
{"molecule": "O=C1OCCN1C(=O)[C@H]1[C@H](c2ccc(F)cc2)C(c2ccccc2)=NN1c1ccc(Br)cc1", "category": "inactive"}
{"molecule": "C=CC(C1=CC(=O)C=CC1=O)c1ccc(O)cc1 (centres undefined)", "category": "inactive"}
{"molecule": "COC(=O)c1sc(=S)n(-c2ccccc2)c1N", "category": "inactive"}
{"molecule": "C[C@H]1Cc2c(COc3ccccc3)nc3c(c2CO1)CN(C(=O)NCc1ccco1)CC3", "category": "inactive"}
{"molecule": "O=C(Nc1ccncc1)c1cc(-c2ccccn2)nc2ccc(Br)cc12", "category": "active"}
{"molecule": "CO[C@@]12[C@@H](COC(N)=O)C3=C(C(=O)C(C)=C(N)C3=O)N1C[C@@H]1N[C@@H]12", "category": "inactive"}
{"molecule": "Cc1cccc([C@H]2[C@@H]3C=CC[C@@H](C)[C@@H]3C(=O)N2Cc2ccccc2)c1", "category": "inactive"}
{"molecule": "CC[C@H](C)[C@@H](NC(=O)O[C@@H]1C(=O)c2cc(OC)ccc2O[C@H]1c1cccc(OC)c1)C(=O)OC", "category": "inactive"}
{"molecule": "COC(=O)C1=C(C(=O)OC)[C@@H]2N(C)c3ccccc3[C@@]23C[C@@H](C(=O)OC)N(S(=O)(=O)c2ccc(Br)cc2)C3=N1", "category": "inactive"}
{"molecule": "CCCCC/C=C\\C/C=C\\CCCCCCCCCC(=O)NCC(=O)O", "category": "inactive"}
{"molecule": "Cc1ccc2nc(-c3ccncc3)cc(C(=O)Nc3ccc(OC(F)F)cc3)c2c1", "category": "inactive"}
{"molecule": "C=CC1=C2C=C(C3CC3)N(C(CO)CO)C=C2C(=O)C(C)(OC(=O)c2ccco2)C1=O (centres undefined)", "category": "inactive"}
{"molecule": "COc1cccc(Cn2c(=O)c(-c3ccccc3)nc3cnc(OC)nc32)c1", "category": "inactive"}
{"molecule": "C=CC1(C)CC(=O)C2(O)C(C)(O1)C(OC(C)=O)C(O)C1C(C)(C)CCC(O)C12C (centres undefined)", "category": "inactive"}
{"molecule": "O=C(NCc1cccs1)c1cc(-c2ccccn2)nc2ccc(Br)cc12", "category": "active"}
{"molecule": "COCCN1C(=O)N[C@@H](CCc2ccccc2)[C@H](C(C)=O)[C@H]1C", "category": "inactive"}
{"molecule": "COc1ccc(-c2nc3cnc(Oc4ccccc4)nc3n(Cc3cccs3)c2=O)cc1", "category": "active"}
{"molecule": "S=c1nccc(-c2cc(Cl)sc2Cl)[nH]1", "category": "active"}
{"molecule": "CC1(C)O[C@@H]2C[C@@H]3[C@H]4C[C@@H](F)C5=CC(=O)C=C[C@]5(C)[C@@]4(F)[C@@H](O)C[C@]3(C)[C@]2(C(=O)CO)O1", "category": "inactive"}
{"molecule": "CC1=C(C/C=C(\\C)CCCC(C)CCCC(C)CCCC(C)C)C(=O)c2ccccc2C1=O (centres undefined)", "category": "inactive"}
{"molecule": "CCOC(=O)c1c(NC(=O)CSc2nnc(Cc3csc(N)n3)n2C)sc(C)c1C", "category": "inactive"}
{"molecule": "Cc1ccc(C)c(S(=O)(=O)N2CC(=O)Nc3ccccc32)c1", "category": "inactive"}
{"molecule": "Cc1nc(SCC(=O)Nc2cc(C)on2)c2c3c(sc2n1)CCCC3", "category": "active"}
{"molecule": "CC1=C(/C=C/C(C)=C/C=C/C(C)=C/C=C/C=C(C)/C=C/C=C(C)/C=C/C(=O)[C@]2(C)C[C@@H](O)CC2(C)C)C(C)(C)C[C@H](O)C1", "category": "inactive"}
{"molecule": "CCCCC/C=C\\C[C@H](O)/C=C/C=C/C=C/[C@@H](O)CCCC(=O)O", "category": "inactive"}
{"molecule": "CC(C)C[C@H](NC(=O)[C@H](O)[C@H](N)Cc1ccccc1)C(=O)O", "category": "inactive"}
{"molecule": "O=C(Nc1c(-c2ccccc2)nc2c(Br)cc(Br)cn12)c1ccco1", "category": "active"}
{"molecule": "COc1ccc(/C(O)=C2/C(=O)C(=O)N(c3nc(C)c(C)s3)C2c2ccco2)cc1 (centres undefined)", "category": "active"}
{"molecule": "Cc1ccccc1NC(=O)c1cnn(-c2ccccc2)c1NC(=O)c1ccco1", "category": "inactive"}
{"molecule": "COc1ccc(CCCOC(Cn2ccnc2)c2ccc(OC)cc2)cc1 (centres undefined)", "category": "inactive"}
{"molecule": "c1ccc2sc(SCCSc3nc4ccccc4s3)nc2c1", "category": "inactive"}
{"molecule": "COC/C=C/C1=CC2=CC(=O)C(C)(OC(=O)CCC(=O)OC)C(=O)C2=CO1 (centres undefined)", "category": "inactive"}
